test system: U2OS; assay: Incucyte cell viability with U2OS; assay type: toxicity, cell-based; conditions: human, 24 h, 10 µM, compound concentration 10 uM, replicate number 2, timepoint 24 hours; note: unitless GR value; below 1 slowed growth and below 0 cell loss
Field: Growth Rate. Provide a value for each of the compounds that follow.
Simply state the number, no unit and no words.

Dear colleague, I am looking for the recorded Growth Rate of the following compound: CC1(COc2ccc3c(c2)ncn3-c2ccc3cccc(N4CCC(N)CC4)c3n2)COC1 [CRENOLANIB]
0.8

What measured Growth Rate goes with Nc1nc(-c2ccco2)c2cnn(Cc3ccccc3F)c2n1 ?
0.48

What value of Growth Rate has been recorded for this entry: O=C(NCCO)c1cccc(-c2cc(Nc3ccc(OC(F)(F)F)cc3)ncn2)c1
0.91

Returns the measured Growth Rate for the input compound. Input: O=C1NCc2ccc3c(-c4cccc(Cl)c4)c[nH]c3c21
-0.28

Need Growth Rate of C[C@@H](c1ccc(F)cc1)n1nnc2cnc3ccc(-c4ccc5ocnc5c4)cc3c21 , thanks.
0.82

May I ask what Growth Rate has been recorded for COc1ccc2[nH]c(I)c(CCNC(C)=O)c2c1 [IODOMELATONIN] ?
0.91

Please give the measured Growth Rate for this compound: Cc1ccc(/C(=C\CN2CCCC2)c2ccccn2)cc1 [TRIPROLIDINE]
0.94

Quick one: Growth Rate for CC(C)[C@H](C(=O)Nc1ccc(C(=O)NO)cc1)c1ccccc1 [AR-42] ?
0.42

What does the record list as Growth Rate for CNc1nc(NCc2ncccn2)c2c(-c3ccc4ncccc4c3)c[nH]c2n1 ?
0.42

Return reported Growth Rate; argument: O=C(O)c1nc2ccccc2c2[nH]c3c(I)cccc3c12
0.91

====

test system: U2OS; assay: Incucyte cell viability with U2OS; assay type: toxicity, cell-based; details: human, 6 h, 10 µM, compound concentration 10 uM, replicate number 2, timepoint 6 hours; note: unitless GR value; below 1 slowed growth and below 0 cell loss
Where a SMILES comes first, the peptide text is derived from it. [ ]: non-standard residue; d: D form.
I'd be grateful if you could share measured Growth Rate for these entries.
No unit in the answer, only the number.

I have this compound here, Cc1c(CC(=O)O)c2cccnc2n1Cc1ccc(S(C)(=O)=O)cc1C(F)(F)F , and I need its recorded Growth Rate.
0.82

So what's the measured Growth Rate for this one? Cl.NCCc1c[nH]c2ccc(O)cc12 [SEROTONIN HYDROCHLORIDE]
0.79

Could you share which Growth Rate value was measured for CC[C@H](Nc1ncnc2[nH]cnc12)c1nc2cccc(F)c2c(=O)n1-c1ccccc1 ?
0.59

Need Growth Rate, item CC(C)C[C@@H]1NC(=O)[C@@H](C(C)C)NC(=O)[C@@H]2CCCN2C(=O)[C@@H](CC(=O)O)NC(=O)[C@@H](Cc2c[nH]c3ccccc23)NC1=O [BQ-123] (cyclo(L[dW][dD]P[dV]))
0.68

Please look up its Growth Rate: O=C1NC(Nc2ccccc2)=N/C1=C\c1ccc2c(c1)OCO2
0.8

I am curious: what Growth Rate value has been reported for COc1cc2nc(N3CCN(C(=O)C4CCCO4)CC3)nc(N)c2cc1OC.Cl.O.O (stereo not drawn) [TERAZOSIN HYDROCHLORIDE] ?
0.76

I'd like to know its Growth Rate. The compound in question is CC(C)OC(=O)N1CCC(Oc2ncnc3c2cnn3-c2ccc(S(C)(=O)=O)cc2F)CC1
0.7

Entry Cc1nc2ccc(Oc3ccc(F)cc3)cc2c(=O)n1C[C@H]1CCCN(C(C)C)C1.Cl has what Growth Rate?
0.98

====

system: U2OS; assay: Incucyte cell viability with U2OS; assay type: toxicity, cell-based; settings: human, 12 h, 10 µM, compound concentration 10 uM, replicate number 1, timepoint 12 hours; note: unitless GR value; below 1 slowed growth and below 0 cell loss
Threshold 0.8: Growth Rate strictly smaller gives y, otherwise n.

Could you please tell me whether Growth Rate recorded for O=C(Nc1cc(C(F)(F)F)ccc1N1CCCCC1)c1ccncc1 is less than 0.8?
n

# TODO verify Growth Rate < 0.8 strictly for this compound: CN[C@@H]1CCc2[nH]c3ccc(C(N)=O)cc3c2C1.O.O=C(O)CCC(=O)O [FROVATRIPTAN SUCCINATE]
y

Strictly below 0.8 in Growth Rate? N#Cc1c(N)nc(SCc2csc(-c3ccc(Cl)cc3)n2)c(C#N)c1-c1ccc(OCCO)cc1
y

In the record for COC[C@@H](CC(C)C)NC1=N/C(=C\c2ccc3ncsc3c2)C(=O)N1C , is Growth Rate less than 0.8?
y

Quick check: Growth Rate of CC[S+]([O-])c1nc(-c2cccc(OCc3ccccc3)c2)cc(C(F)(F)F)n1 (stereo not drawn) under 0.8?
y

Lab note: Growth Rate threshold 0.8. Does this compound come in strictly under it? O=C(NC[C@@H]1[C@H]2CN(C(=O)OCc3cc(C(F)(F)F)cc(C(F)(F)F)c3)C[C@@H]12)c1ccc2[nH]nnc2c1
n

Please indicate whether the reported Growth Rate of CNC(=O)[C@H]1O[C@@H](n2cnc3c(NCc4cccc(I)c4)ncnc32)[C@H](O)[C@@H]1O is strictly below 0.8.
n

Consider the compound CNCCN1CCC(c2cc(CN(C)C(=O)c3cccc(Oc4ccccc4)c3)ccn2)CC1 . Is its Growth Rate strictly less than 0.8?
n

====

test system: Fibroblast; assay: Incucyte cell viability with human fibroblast; assay type: toxicity, cell-based; details: 6 h, 10 µM, compound concentration 10 uM, replicate number 1, timepoint 6 hours; note: unitless GR value; below 1 slowed growth and below 0 cell loss
QUANTITY: Growth Rate
Form rule: numeric answer, no unit written next to it.

Reported Growth Rate, compound CC1(C)[C@H]2C[C@H](C/C=C\CCCC(=O)O)[C@@H](NC(=O)c3csc4ccc(O)cc34)[C@@H]1C2 : ____
0.09

Name the recorded Growth Rate for COc1ccc(C(=O)N2CCN(C(=O)/C=C/c3ccc(Br)cc3)CC2)cc1 .
-0.51

Requested field: Growth Rate. Item: CN(C)C(=O)N1CC[C@H](NC2=Nc3cc(F)ccc3N(CC(F)F)c3ccc(Cl)cc32)C1
-0.43

Entry under review: COc1cccc2c1c(NS(=O)(=O)c1ccc(Cl)s1)nn2Cc1cccc(CNC(=O)C(C)(C)O)c1 . Reported Growth Rate?
0.17

Data request, read-out Growth Rate, for NC[C@H](O)c1ccc(O)c(O)c1.O.O=C(O)C(O)C(O)C(=O)O
0.19

====

For each of the compounds below, state its Growth Rate.
system: HEK-293T; test: Incucyte cell viability with HEK293T; assay type: toxicity, cell-based; details: human, 18 h, 10 µM, compound concentration 10 uM, replicate number 2, timepoint 18 hours; note: unitless GR value; below 1 slowed growth and below 0 cell loss
*1 amine or outer side, *2 acyl side, *3 side chain or, on linkers, in order; H or OH if unused. Where a SMILES comes first, the peptide text is derived from it. Bridges are numbered along the chain shown (N, C = ends). X1 = O=C(CCC[*:2])[*:1]
No unit in the answer, please; the number alone is enough.

# get_value(readout='Growth Rate', item= CNc1nc(NCc2ncccn2)c2c(-c3ccc4ncccc4c3)c[nH]c2n1 )
-0.28

Item C[C@@H]1CN(Cc2ccc(F)cc2)CCN1C(=O)COc1ccc(Cl)cc1NC(N)=O [BX 471 FREE BASE] has what recorded Growth Rate?
0.4

Look up Growth Rate for this compound: CC[C@H](C)[C@@H]1NC(=O)[C@H](Cc2ccc(OC)cc2)NC(=O)CCCSC[C@@H](C(=O)N2CCC[C@H]2C(=O)N[C@@H](CC(C)C)C(=O)NCC(N)=O)NC(=O)[C@H](CC(N)=O)NC(=O)[C@H](CCC(N)=O)NC1=O [CARBETOCIN] (Y(Me)IQNCPLG-NH2; linker N-5 via X1)
1

I would be grateful if you could share the reported Growth Rate for Cl.O=C(O)c1cc(-c2ccc(C3CCNCC3)cc2)c2ccc(-c3ccc(C(F)(F)F)cc3)cc2c1 .
0.68

Fill in: Growth Rate of O=C(c1cc(C2CC2)on1)N(C1CCCCC1)C1CCCCC1 is ___
0.68

Given Cc1sc2c(c1C)C(c1ccc(Cl)cc1)=N[C@@H](CC(=O)NCCCCCCCCNC(=O)COc1cccc3c1C(=O)N(C1CCC(=O)NC1=O)C3=O)c1nnc(C)n1-2 (some centres undefined) , state its recorded Growth Rate.
-0.02

What measured Growth Rate goes with O=C(Nc1cc(-c2cn[nH]c2)ccc1N1CCOCC1)c1ccc(-c2ccc3ncccc3c2)o1 ?
0.07

# Growth Rate lookup, item C=CCNc1ncnc2ccc(Br)cc12
0.9

For the compound C[C@@H](c1ccc(F)cc1)n1nnc2cnc3ccc(-c4ccc5ocnc5c4)cc3c21 , what Growth Rate is on record?
0.07

====

system: Fibroblast; assay: Incucyte cell viability with human fibroblast; type: toxicity, cell-based; conditions: 12 h, 10 µM, compound concentration 10 uM, replicate number 1, timepoint 12 hours; note: unitless GR value; below 1 slowed growth and below 0 cell loss
QUANTITY: Growth Rate

Can you look up the measured Growth Rate of COc1cc(/C=C/C(=O)NCCn2c(C)cc3ccccc32)cc(OC)c1OC for me?
0.87

GET /values?readout=Growth Rate&item= CCCCCCCCc1ccc(CCC(N)(CO)CO)cc1
-0.88

Can you look up the measured Growth Rate of Cc1nn(C)c(C)c1-c1cccc2c1CC[C@H](N(C)C)C2 for me?
0.75

Which Growth Rate value belongs to CS(=O)(=O)c1ccc(C(=O)Nc2ccc(Cl)c(-c3ccccn3)c2)c(Cl)c1 ?
0.7

Requested field: Growth Rate. Item: CC(C)(O)C(=O)N1CCN(c2ccc(C(F)(F)F)c(C3=C(c4c[nH]c5ccccc45)C(=O)NC3=O)c2)CC1
-0.33

Consider the molecule O=C(c1cc(C2CC2)on1)N(C1CCCCC1)C1CCCCC1 and give its measured Growth Rate.
0.15

Would you kindly share the measured Growth Rate for CCCCC/C=C\C/C=C\C/C=C\C/C=C\CCCC(=O)NCC(=O)O ?
0.75

Using the record for CC(=O)Nc1cccc2c1c(Sc1ccc(Cl)cc1)c(C)n2CC(=O)O , report its Growth Rate.
0.35

Which Growth Rate value belongs to CN(c1ncccc1CNc1ccnc(-c2nc3c(F)c(Cl)ccc3[nH]2)n1)S(C)(=O)=O ?
0.38
